These data points were gathered from patent US7956082B2.

Test system: Brown Norway (BN) Rats
Assay: Test using OVA asthma model of rat
Format: in vivo
Conditions: 10 mg/kg p.o. once a day for three days; vs control group; AUC of acetylcholine response curve
Assign class by inhibition rate (%) increased hyperresponsive airway: not lower than 60% means Met; lower than 60% means Not met.

q: Answer whether inhibition rate (%) increased hyperresponsive airway of CC(C)Oc1ccc(S(=O)(=O)N2CC[C@@H](c3cn(CC(=O)O)c4ccc(Cl)cc34)C2)cc1 [Compound I-65] is greater than or equal to 60%.
a: Met

q: Answer whether inhibition rate (%) increased hyperresponsive airway of CC(C)Oc1ccc(S(=O)(=O)N2CCC(c3cn(CC(=O)O)c4cc(-c5ccncc5)ccc34)C2)cc1.Cl (stereo not drawn) [Compound I-75] is greater than or equal to 60%.
a: Not met

q: Answer whether inhibition rate (%) increased hyperresponsive airway of CC(C)Oc1ccc(S(=O)(=O)N2CCC(c3cn(CC(=O)O)c4cc(Cl)ccc34)C2)cc1 (stereo not drawn) [Compound I-14] is greater than or equal to 60%.
a: Not met

q: Answer whether inhibition rate (%) increased hyperresponsive airway of CC(C)Oc1ccc(S(=O)(=O)N2CCC(c3cn(CC(=O)O)c4cc(-c5ccco5)ccc34)C2)cc1 (stereo not drawn) [Compound I-77] is greater than or equal to 60%.
a: Met

q: Answer whether inhibition rate (%) increased hyperresponsive airway of CC(C)Oc1ccc(S(=O)(=O)N2CC[C@@H](c3cn(CC(=O)O)c4cc(-c5ncco5)ccc34)C2)cc1 [Compound I-103] is greater than or equal to 60%.
a: Met

---

Molecular target: DP receptor (Homo sapiens, UniProt Q13258)
Construct: endogenous in cells
Sequence (Q13258 whole entry): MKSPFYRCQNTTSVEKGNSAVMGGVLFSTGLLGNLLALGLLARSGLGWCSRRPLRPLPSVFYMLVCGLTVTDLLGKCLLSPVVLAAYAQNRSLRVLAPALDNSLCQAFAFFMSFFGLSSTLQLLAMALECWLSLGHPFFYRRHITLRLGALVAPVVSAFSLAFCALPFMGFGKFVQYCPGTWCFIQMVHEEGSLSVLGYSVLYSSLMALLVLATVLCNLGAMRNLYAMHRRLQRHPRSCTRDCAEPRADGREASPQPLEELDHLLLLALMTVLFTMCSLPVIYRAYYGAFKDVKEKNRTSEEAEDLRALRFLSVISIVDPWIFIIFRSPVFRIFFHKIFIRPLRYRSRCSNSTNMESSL
Test: Receptor binding assay, [3H]-PGD2, platelet membrane
Settings: [3H]-PGD2, human platelet membrane, on ice 2 hours
pKi: −log10 of the molar value.
Assign class by pKi: not lower than 9 means Y; lower than 9 means N.

q: Answer whether pKi of CC(C)Oc1ccc(S(=O)(=O)N2CCC(c3cn(CC(=O)O)c4cc(-c5ccco5)ccc34)C2)cc1 (stereo not drawn) is greater than or equal to 9.
a: Y

q: Answer whether pKi of CC(C)Oc1ccc(S(=O)(=O)N2CCC(c3cn(CC(=O)O)c4cc(-c5nnco5)ccc34)C2)cc1 (stereo not drawn) is greater than or equal to 9.
a: N

q: Answer whether pKi of CC(C)Oc1ccc(S(=O)(=O)N2CCC(c3cn(CC(=O)O)c4cc(Cl)ccc34)C2)cc1 (stereo not drawn) is greater than or equal to 9.
a: N

q: Answer whether pKi of CC(C)Oc1ccc(S(=O)(=O)N2CCC(c3cn(CC(=O)O)c4cc(-c5nccs5)ccc34)C2)cc1 (stereo not drawn) is greater than or equal to 9.
a: Y

q: Answer whether pKi of CCOc1ccc(S(=O)(=O)N2CCC(c3cn(CC(=O)O)c4ccc(Cl)cc34)C2)cc1 (stereo not drawn) is greater than or equal to 9.
a: N

q: Answer whether pKi of CC(C)Oc1ccc(S(=O)(=O)N2CCC(c3cn(CC(=O)O)c4cc(Br)ccc34)C2)cc1 (stereo not drawn) is greater than or equal to 9.
a: N

q: Answer whether pKi of CC(C)Oc1ccc(S(=O)(=O)N2CCC(c3cn(CC(=O)O)c4cc(F)ccc34)C2)cc1 (stereo not drawn) is greater than or equal to 9.
a: N

q: Answer whether pKi of CC(C)Oc1ccc(S(=O)(=O)N2CCC(c3cn(CC(=O)O)c4c(Cl)cccc34)C2)cc1 (stereo not drawn) is greater than or equal to 9.
a: N

q: Answer whether pKi of CC(C)Oc1ccc(S(=O)(=O)N2CCC(c3cn(CC(=O)O)c4ccc(F)cc34)C2)cc1 (stereo not drawn) is greater than or equal to 9.
a: N

q: Answer whether pKi of CC(C)Oc1ccc(S(=O)(=O)N2CC[C@@H](c3cn(CC(=O)O)c4cc(-c5ccco5)ccc34)C2)cc1 is greater than or equal to 9.
a: Y

q: Answer whether pKi of CC(C)Oc1ccc(S(=O)(=O)N2CC[C@@H](c3cn(CC(=O)O)c4ccc(Cl)cc34)C2)cc1 is greater than or equal to 9.
a: N

q: Answer whether pKi of CC(C)Oc1ccc(S(=O)(=O)N2CCC(c3cn(CC(=O)O)c4ccc(Cl)cc34)C2)cc1 (stereo not drawn) is greater than or equal to 9.
a: N
